# Test system: OVCAR-8
# procedure text: NCI tumour cell line growth inhibition, 48 h
Active and inactive are the calls of the source. Cut-off read from the data, not from the text of the source: active = GI50 up to about 1.1 µM and inactive = higher.
measured endpoint: GI50

>>> df
                                        smi       endpoint_value
0      COc1ccc(/C=N/c2c(O)ccc3ccccc23)cc1OC  > 100 µM (inactive)
1         Cc1cc2c(ccc[n+]2[O-])[n+]([O-])c1  > 100 µM (inactive)
2                C(=N\OCCc1ccccc1)/c1cccnc1  > 100 µM (inactive)
3        O=c1[nH]c(=O)n(COCCO)c2ccc(Br)cc12  > 100 µM (inactive)
4  COc1ccc(C(=O)/C=C/c2ccc(OCC(=O)N3CCN(c4ccccc4)CC3)cc2)cc1OC   4.29 µM (inactive)
5  COc1ccc(/C=C2\N=C3NC(=O)C(N4CCCCC4)=C(N)N3C2=O)cc1  > 100 µM (inactive)

* * *

Reported GI50 values for a set of compounds
# System: HCT-116
# procedure text: NCI tumour cell line growth inhibition, 48 h
The source made the active and inactive calls. Cut-off read from the data, not from the text of the source: active = GI50 up to about 1.1 µM and inactive = higher.
measured endpoint: GI50

                                    compound       endpoint_value
 0  Oc1c2cccc1Cc1cccc3c1OCCOCCOCCOCCOc1c(cccc1Cc1cccc(c1O)C3)C2   7.43 µM (inactive)
 1                  C(=N/Nc1ccccn1)/c1cccnc1  > 100 µM (inactive)
 2        O=C1CCC(c2ccccc2)=NN1c1nsc2ccccc12   99.3 µM (inactive)
 3  CC(C)(C)C(=O)OCC1C(=O)OCC1C(=O)N1Cc2cc3ccccc3nc2C1 (configuration not stated)   2.09 µM (inactive)
 4  COc1cc(Cc2cc3c(c(C(=O)O)c2Br)OCO3)cc(OC)c1OC     37 µM (inactive)
 5  CCCCc1ccc(Nc2nc(Cl)c3c(ncn3COCCOC(C)=O)n2)cc1   17.3 µM (inactive)
 6  O=C1CC(=O)N(CCc2ccccc2)S(=O)(=O)N1CCc1ccccc1   28.7 µM (inactive)
 7         Cc1cc2c(ccc[n+]2[O-])[n+]([O-])c1  > 100 µM (inactive)
 8  Cc1nc(O)nc2nc3cc(Cl)cc(Cl)c3c(NC(C)(CO)CO)c12     34 µM (inactive)
 9       CC1=NN=C(NCCN(C)C)C/C1=C/c1ccccc1Cl  > 100 µM (inactive)
10  [N-]=[N+]=Nc1c(Cc2ccccc2)c(=O)oc2ccccc12   > 10 µM (inactive)
11  O=C(O)/C=C\C(=O)Nc1ccc2c(c1)C(=O)c1cc(F)ccc1-2  > 100 µM (inactive)

* * *

# System: BT-549
# procedure text: NCI tumour cell line growth inhibition, 48 h
The source made the active and inactive calls. Cut-off read from the data, not from the text of the source: active = GI50 up to about 1.1 µM and inactive = higher.
Possible outcomes: T (active), F (inactive)

compound	tested target	group label
OC(CCN1CCCCC1)(c1ccccc1)c1ccccc1	BT-549	F
CC(C)(C)c1ccc(OC(=O)Nc2ccc(O)c(C(=O)O)c2)cc1	BT-549	F
CC(=O)Nc1ccc(-c2nc3ccccc3s2)cc1I	BT-549	F
CCN(CC)c1ccc2cc(-c3nc4ccccc4n3C)c(=O)oc2c1	BT-549	T
CN(C)CCCNc1nnc(NCCCN(C)C)c2c(=O)c3sccc3[nH]c12	BT-549	F
CCOC1NC(=O)Oc2cc3ccccc3cc21 (stereo unspecified)	BT-549	F
O=C1CC(CC(OCc2ccccc2)C(COCc2ccccc2)OCc2ccccc2)CC(=O)N1 (stereo unspecified)	BT-549	F
CC(=C(C(=O)O)C(=O)O)c1cc(-c2cccs2)cc(-c2ccc(Cl)cc2)c1O	BT-549	F
Cc1nc(O)nc2nc3cc(Cl)cc(Cl)c3c(NC(C)(CO)CO)c12	BT-549	F
CCOC(CCNCC(OCC)OCC)OCC	BT-549	F
CCC1(OC(=O)CN)C(=O)OCc2c1cc1n(c2=O)Cc2cc3ccccc3nc2-1 (stereo unspecified)	BT-549	T
CCOC(=O)C(C(=S)SC)c1nn2c(=O)cc(C)nc2s1 (stereo unspecified)	BT-549	F
CCOC(=O)c1cc2cc(Cc3ccc4[nH]c(C(=O)OCC)cc4c3)ccc2[nH]1	BT-549	F
C(=N/Nc1ccccn1)/c1cccnc1	BT-549	F
O=[N+]([O-])c1ccc(C2=NOC(c3ccc(Cl)cc3)N2C23CC4CC(CC(C4)C2)C3)cc1 (stereo unspecified)	BT-549	F
CN(C)c1ccc(/C=C(\C#N)c2nc(-c3cc4ccccc4oc3=O)cs2)cc1	BT-549	F
Cc1cc2c(cc1C)C(=O)c1ncccc1C2=O	BT-549	F
CN(/N=C/c1ccc(C(=O)O)cc1)C1=NCCCCN1	BT-549	F
C/C(=N\NC(=S)N1CCCC1)c1nc2cccnc2[nH]1	BT-549	T
CC1CC[C@@H](C(C)C)[C@H](Oc2nnc(C3OC(CO)C(O)C3O)o2)C1 (stereo partly specified)	BT-549	F
CC[C@](O)(C(=O)O)c1cc2n(c(=O)c1CO)Cc1cc3ccccc3nc1-2	BT-549	T
COc1cc2c3cc1Oc1c(OC)c(OC)cc4c1C(Cc1ccc(O)c(c1)Oc1ccc(cc1)CC3N(C)CC2)CN(C)C4 (stereo unspecified)	BT-549	F
CC(C)(C)NCC(O)c1ccc(O)c(CO)n1 (stereo unspecified)	BT-549	F
Nc1ccc(-c2nc3ccc(F)cc3s2)cc1Cl	BT-549	F
O=P(c1ccccc1)(c1ccccc1)c1ccc2c(c1)OCCOCCOCCOCCO2	BT-549	F
CCOC(=O)C1=C(C)N(c2ccc(Cl)cc2)C2(O)C=CC(=O)C3C(=O)N(c4ccccc4)C(=O)C132 (stereo unspecified)	BT-549	F
O=C(Cn1c(C(=O)/C=C/c2ccco2)nc2ccccc21)c1ccc(Cl)cc1	BT-549	F
O=CN1CCN(C(=O)c2ccc(Cl)cc2Cl)C1=S	BT-549	F
COc1ccc(C(OCC2OC3(COC(c4ccccc4)(c4ccc(OC)cc4)c4ccc(OC)cc4)C(Oc4nc(=O)ccn43)C2O)(c2ccccc2)c2ccc(OC)cc2)cc1 (stereo unspecified)	BT-549	F
CC(C)(C)C(=O)OCC1C(=O)OCC1C(=O)N1Cc2cc3ccccc3nc2C1 (stereo unspecified)	BT-549	F
N#C[C@H](C(=O)c1ccccc1F)c1nc2ccccc2[nH]1	BT-549	F
